test system: MS2 coat protein; assay: apparent KD of MS2 coat protein, switch ON state; designed switch direction (-1 OFF switch, 1 ON switch): -1; higher = weaker reporter binding; conditions: FMN input: 0 or 200 uM; Eterna round: R93 (includes R88 designs)
Measured apparent KD of MS2 coat protein values are reported for all entries that follow.
Numeric only. Scale: nM

Some entries whose results are on file:
{"Biosequence": "GUAAACCUAGGAUAUACAUGAGGAUCACCCAUGUAAAGUUUCGUAAAAAGAAAAUCGAGUAGAAGGAGGUAGAU [JR_Exc003_Sub1222]", "Unit string": "nM", "apparent KD of MS2 coat protein": 22.5}
{"Biosequence": "AAAAAACAUGAGGAUCACCCAUGUCAGGAUAUGCCAACCUAAAAAAAAAAAAAAAAACGUAGAAGGGACAAAAA [Bilbo Confounded 2 - Jieux - Exclusion 1]", "Unit string": "nM", "apparent KD of MS2 coat protein": 28.7}
{"Biosequence": "AACAGUACAGGAUAUACAUGAGGAUCACCCAUGUGAGAAUUAAGCAGCGUAACACACAGUAGAAGGGUAAUGGA [Ruby 20]", "Unit string": "nM", "apparent KD of MS2 coat protein": 46.4}
{"Biosequence": "GGAAAACAUGAGGAUCACCCAUGUAAGGAUAUGCUAAAAAAAAAAAAAAACCCACCAGGCAGAAGGUACUAAAG [Janelle Amethyst 18 Mod 2 - Jieux - Exclusion 1]", "Unit string": "nM", "apparent KD of MS2 coat protein": 20.4}

Q: Annotate the sequence AAGAAGGUAGGAUAUACUAACGAAACUAAUGCAUAGAUAAAACAUGAGGAUCACCCAUGUAGAAGGGCCAGAAU [JR_Exc002_Sub015] with its measured apparent KD of MS2 coat protein.
A: 43.8

Q: Annotate the sequence CUCAAGUCAGGAUAUUUAAGAAAAGAAGAGAAAGAAAAGAAAAAGAAGGGACAUGAGGAUCACCCAUGUAAGAA [EteRNA is fun!] with its measured apparent KD of MS2 coat protein.
A: 60.4

All values here come from the supplement of paper PMC9170038.
